These data points were gathered from paper PMC10137179.

assay: in vitro; format: cell-based, human; conditions: human, clinically relevant warheads, 0.1 µM to 100 µM, Neutral Red, uninfected HFFs, 7 d; read-out: CC50
PROPERTY_MEASURED: CC50 at 7 days
Remember to follow the number with its unit.

Request: Item C=CC(=O)Nc1cc(Nc2nccc(-c3cn(C)c4ccccc34)n2)c(OC)cc1N(C)CCN(C)C has what recorded CC50 at 7 days?
Response: 23 µM

###

// CC50 at 7 days lookup, one value per entry
Experiment: in vitro
Assay type: cell-based, human
Conditions: human
Protocol: Cytotoxicity of the analyzed compounds was determined by the Neutral Red dye uptake assay. […] The quantity of dye incorporation was determined using the Victor X4 microplate reader (PerkinElmer, Waltham, MA, USA) by fluorescence measurement at 560/630 nm for excitation/emission, respectively. […] Finally, cells were washed once with PBS followed by automated fluorescence quantitation.

Examples with answers:
{"MOL_SMILES": "C=C1C(=O)O[C@@H]2C[C@@]3(C)CCC[C@H](C)C3=C[C@H]12", "CC50 at 7 days": "23 µM"}
{"MOL_SMILES": "COC[C@H]1OC(=O)c2coc3c2[C@@]1(C)C1=C(C3=O)[C@@H]2CCC(=O)[C@@]2(C)C[C@H]1OC(C)=O", "CC50 at 7 days": "> 100 µM"}

Next compound, CC50 at 7 days to be filled in.
Request: Item COC(=O)[C@]12CCC(C)(C)C[C@H]1[C@H]1C(=O)C=C3[C@@]4(C)C=C(C#N)C(=O)C(C)(C)[C@@H]4CC[C@@]3(C)[C@]1(C)CC2 has what recorded CC50 at 7 days?
Response: > 0.8 µM

###

experiment: in vitro; assay type: cell-based, human; settings: human, CC50
PROPERTY_MEASURED: CC50 at 7 days (µM)
Number only, in µM; omit the unit.

{"MOLECULE": "CCN(CC)C(=O)/C(C#N)=C/c1cc(O)c(O)c([N+](=O)[O-])c1", "PROPERTY_MEASURED": "CC50 at 7 days", "MEASURED": 93}
{"MOLECULE": "C=CC(=O)N1CCN(c2nc(=O)n(-c3c(C)ccnc3C(C)C)c3nc(-c4c(O)cccc4F)c(F)cc23)[C@@H](C)C1", "PROPERTY_MEASURED": "CC50 at 7 days", "MEASURED": 95}
{"MOLECULE": "CCOc1cc2ncc(C#N)c(Nc3ccc(OCc4ccccn4)c(Cl)c3)c2cc1NC(=O)/C=C/CN(C)C", "PROPERTY_MEASURED": "CC50 at 7 days", "MEASURED": 37}

Next molecule, CC50 at 7 days to be filled in.
Request: Item C=C1C(=O)O[C@H]2[C@H]1CC/C(C)=C/CC[C@@]1(C)O[C@@H]21 [parthenolide] has what recorded CC50 at 7 days?
Response: 9

###

test system: HFFs; test: in vitro; type: cell-based, human; conditions: human, 7 days
PROPERTY_MEASURED: CC50

Request: Item CN(C)C/C=C/C(=O)Nc1cc2c(Nc3ccc(F)c(Cl)c3)ncnc2cc1O[C@H]1CCOC1 has what recorded CC50?
Response: ~9 µM
